- Test system: Rattus norvegicus
- Protocol Details: Utilization of DA/g by total brain without cerebellum following alpha-MT (250 mg/kg) at a dose of 10 mg/kg
- Format: functional
Classification field: T = DA utilization at or over 4000; F = DA utilization under 4000.

hey, is DA utilization for this one >= 4000? Cl.Cl.Nc1nc2c(s1)C[C@H](N)CC2
F

Tell me whether DA utilization is at least 4000 here: CCCN1CCCC2Cc3nc(N)sc3CC21 (configuration not stated)
T

I'd appreciate it if you could say whether CN1CCc2cccc3c2C1Cc1sc(N)nc1-3 (racemic) has DA utilization at least equal to 4000.
F

Quick check, DA utilization >= 4000? Cl.Cl.Nc1nc2c(s1)C[C@@H](N)CC2
F

Please tell me: is the compound CCCN[C@H]1CCc2nc(N)sc2C1.Cl.Cl at or over 4000 in terms of DA utilization?
T

I'd appreciate it if you could say whether CCCN[C@@H]1CCc2nc(N)sc2C1.Cl.Cl has DA utilization at least equal to 4000.
T
